Sourced from paper PMC5841300

# TARGET_UNDER_TEST: New Delhi metallo-β-lactamase-1 (NDM-1) (Escherichia coli, UniProt E5KIY2, K211A)
# Construct: NDM-1 without the signal peptide, amino-terminal histidine tag
# ASSAY_COMMENT: fluorescence quenching (binding constant KA)
PARAMETER_MEASURED: Kd (µM)

> print(dat)
                                   compound  parameter.measured  result
1  C=CCc1ccc(O)c(-c2cc(CC=C)ccc2O)c1 [magnolol]                  Kd    20.8
